# system-name: Cytochrome P450 2C9 (Homo sapiens, UniProt P11712)
# Sequence (P11712 whole entry): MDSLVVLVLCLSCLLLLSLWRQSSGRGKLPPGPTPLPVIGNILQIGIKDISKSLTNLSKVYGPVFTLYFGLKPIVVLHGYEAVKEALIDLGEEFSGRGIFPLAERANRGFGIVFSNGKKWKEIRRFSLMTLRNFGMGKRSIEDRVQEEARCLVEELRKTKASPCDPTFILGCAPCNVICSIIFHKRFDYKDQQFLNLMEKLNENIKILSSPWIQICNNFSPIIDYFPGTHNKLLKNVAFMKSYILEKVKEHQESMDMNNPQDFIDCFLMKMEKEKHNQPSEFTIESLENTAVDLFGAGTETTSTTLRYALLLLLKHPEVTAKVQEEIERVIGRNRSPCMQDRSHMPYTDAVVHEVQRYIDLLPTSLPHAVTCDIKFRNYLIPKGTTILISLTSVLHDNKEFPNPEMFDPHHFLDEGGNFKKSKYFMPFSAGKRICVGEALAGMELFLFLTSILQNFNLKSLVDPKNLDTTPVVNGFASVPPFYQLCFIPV
The compounds listed here are annotated with their AC50.
measure-name: AC50

O=C(NCc1cn(-c2ccccc2)nc1-c1ccccc1)c1cc([N+](=O)[O-])cc([N+](=O)[O-])c1 :: 2.82 µM (inconclusive)
Cc1ccc(C(=O)NCC2CCCO2)cc1N1CCCC1=O (stereo not drawn) :: 2.82 µM (inconclusive)
COc1ccc(Oc2ncc3nc(-c4cccc(C#N)c4)c(=O)n(Cc4cccc(OC)c4)c3n2)cc1 :: 2.51 µM (inconclusive)

====

# system-name: Cytochrome P450 2C19 (Homo sapiens, UniProt P33261)
# Sequence (P33261 whole entry): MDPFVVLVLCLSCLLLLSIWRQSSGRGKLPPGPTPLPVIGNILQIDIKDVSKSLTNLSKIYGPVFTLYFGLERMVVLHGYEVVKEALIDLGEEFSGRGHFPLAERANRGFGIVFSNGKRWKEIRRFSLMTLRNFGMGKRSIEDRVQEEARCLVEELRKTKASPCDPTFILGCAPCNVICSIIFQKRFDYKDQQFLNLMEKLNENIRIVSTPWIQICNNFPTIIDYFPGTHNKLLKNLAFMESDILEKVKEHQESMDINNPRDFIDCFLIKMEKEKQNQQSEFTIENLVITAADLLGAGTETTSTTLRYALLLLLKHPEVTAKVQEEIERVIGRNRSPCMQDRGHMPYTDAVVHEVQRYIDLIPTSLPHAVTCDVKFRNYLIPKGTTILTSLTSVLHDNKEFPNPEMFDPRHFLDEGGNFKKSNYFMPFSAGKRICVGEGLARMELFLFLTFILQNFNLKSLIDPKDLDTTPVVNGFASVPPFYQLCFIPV
# protocol-notes: Cytochrome panel assay with activity outcomes. Panel member name: p450-cyp2c19 Compounds with AC50 equal or less than 10 uM are considered active
# Type: functional
# assay-context: read-out: AC50
measure-name: AC50

COc1ccc(CNc2ncnc3ccc(-c4cccnc4)cc23)c(OC)c1 :: 31.6 µM (inconclusive)
COc1ccc(-n2c(=O)c(C)nc3cnc(Oc4cccc(Cl)c4)nc32)cc1 :: 39.8 µM (inconclusive)
C=CCSc1nnc(-c2cc3c(C(F)(F)F)nn(C)c3s2)n1C :: 3.55 µM (inconclusive)
O=C(C1CCN(S(=O)(=O)c2cccc3cccnc23)CC1)N1CCN(c2ccccn2)CC1 :: 7.08 µM (inconclusive)
Cc1nc(SCC(=O)Nc2c(C)nn(C)c2C)c2cnn(-c3ccccc3)c2n1 :: 28.2 µM (inconclusive)

====

# system-name: Ubiquitin-conjugating enzyme E2 N (Homo sapiens);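 further: Dose-response confirmation in a TR-FRET assay detecting UBC13-driven polyubiquitin chain formation, inhibition measured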
# Sequence (P61088 whole entry): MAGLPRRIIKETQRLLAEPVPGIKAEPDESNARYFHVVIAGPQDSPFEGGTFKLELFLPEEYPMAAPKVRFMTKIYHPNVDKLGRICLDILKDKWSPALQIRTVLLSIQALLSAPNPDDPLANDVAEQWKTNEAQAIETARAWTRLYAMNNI
# Format: functional
The source made the active and inactive calls.
Outcomes: 1 (yes) (active), 0 (no) (inactive)

CC/C(=C(\c1ccc(O)cc1)c1ccc(OCCN(C)C)cc1)c1ccccc1 :: 0 (no)
CCCCCCCCCCOC(=O)Cn1c(COc2ccc(OC)cc2)[n+](C)c2ccccc21 :: 1 (yes)
COc1ccc(C(=O)Nn2c(C)nc3ccccc3c2=O)cc1 :: 1 (yes)
CC(C)(C)CN1CCNC[C@H]1Cc1cccc2ccccc12 :: 0 (no)

====

This section presents compounds with their documented AC50 values.
# protocol-notes: P. falciparum Dd2 growth inhibitors, dose response, SYBR Green, cherry-picked samples (AID 1159567)
# Type: functional, cell-based
Active and inactive are the calls of the source.
measure-name: AC50

O=C(C1CCCC1)N1CC(=O)N2[C@H](C1)[C@@H](c1ccc(C#CCc3ccccc3)cc1)[C@@H]2CO :: 4.51 µM (active)
COc1ccccc1C#Cc1ccc([C@@H]2[C@@H](CO)N(C(=O)C3CCCCC3)[C@H]2C#N)cc1 :: 2.73 µM (active)
COCC(=O)Nc1ccc2c(c1)C(=O)N(C)C[C@H](OC)[C@H](C)CN(Cc1cccc(F)c1)[C@@H](C)CO2 :: 5.34 µM (active)

====

# system-name: UniProtKB G5EF15
# Sequence (G5EF15 whole entry, the tested form may be a part): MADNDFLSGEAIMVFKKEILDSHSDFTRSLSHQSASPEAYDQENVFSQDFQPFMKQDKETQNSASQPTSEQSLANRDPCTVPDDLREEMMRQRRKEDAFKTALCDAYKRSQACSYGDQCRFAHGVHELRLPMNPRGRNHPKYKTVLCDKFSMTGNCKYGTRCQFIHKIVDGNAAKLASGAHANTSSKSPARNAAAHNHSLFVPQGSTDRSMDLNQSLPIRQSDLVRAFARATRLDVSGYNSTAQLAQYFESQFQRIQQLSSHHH
# protocol-notes: disruptors of C. elegans POS-1 RNA interaction – biochemical, fluorescence polarization, dose response (AID 1964);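 further: purified POS-1 fused to maltose binding protein made in E. coli; potency of compounds blocking POS-1 binding to fluorescent RNA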
Active and inactive are the calls of the source.
measure-name: EC50

ON=C1/C(=N\O)CC2(C/C1=N/O)OCCO2 :: > 300 µM (not active)
Nc1ccc2c(c1)-c1ccccc1S(=O)(=O)N2 :: > 300 µM (not active)
CC(=O)c1cc(NC(=O)c2ccc(Cl)cc2)c(=O)oc1/C=C/N(C)C :: 57.3 µM (active)
O=C1NC(=O)N(c2ccccc2)C(=O)/C1=C\c1ccc2c3c(cccc13)CC2 :: > 300 µM (not active)
Cc1cccn2c(=O)c3cc(C(=O)NCC4CCCO4)c(=N)n(CCc4ccccc4)c3nc12 (stereo unspecified) :: 102 µM (active)
COC(=O)c1c(C(=O)OC)c2n(c1C)Cc1ccccc1C2 :: > 300 µM (not active)

Origin of values: ChEMBL document CHEMBL1201862
